Listed below: IC50 values for each entry.
Target: T1, human NGF-Fc4 (IgG4-Fc) (human, UniProt P01138 122-241, limits assumed)
T1 construct: not shown: human IgG4 Fc
T1 sequence (P01138 122-241 limits assumed): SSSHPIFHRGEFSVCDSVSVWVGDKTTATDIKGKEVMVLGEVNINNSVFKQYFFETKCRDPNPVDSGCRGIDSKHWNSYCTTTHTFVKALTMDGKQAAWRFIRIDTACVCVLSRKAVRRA
Experiment: competition ELISA: antibody pre-incubated with human NGF-Fc4, binding to coated TrkA-Fc
Respond with the bare value in µg/mL.

**Q:** I am curious: what IC50 value has been reported for Ab56 (antibody, human IgG1, V domains shown) VH: EVQLVQSGAEVKKPGESLKISCKISGYSFITYWISWVRQMPGKGLEWMGAIDPSDSDARYSPSFQGQVTISADKSISTAYLQWSSLKASDTAMYYCAKSDPGYSGYSLLYGFDSWGQGTLVTVSS VL: DVVMTQSPLSLPVTLGQPASISCRSSQSLVQRNGNTYLSWFQQRPGQPPRLLIYQVSNRYSGVPDRFSGSGSGTDFTLKISRVEAEDVGVYYCGQGAHLPLTFGQGTKVEIK ?
**A:** 0.0665

**Q:** Given the entry Ab45 (antibody, human IgG1, V domains shown) VH: EVQLVQSGAEVKKPGESLKISCKGSGYSFITYWISWVRQMPGKGLEWMGAIDPSDSDARYSPSFQGQVTISADKSISTAYLQWSSLKASDTAMYYCAKSDPGYSGYSLLYGFDSWGQGTLVTVSS VL: DVVMTQSPLSLPVTLGQPASISCRSSQSLVQRNGNTYLSWYQQRPGQPPRLLIYQVSNRYSGVPDRFSGSGSGTDFTLKISRVEAEDVGVYYCGQGAHLPLTFGQGTKVEIK , report its measured IC50.
**A:** 0.0898

Next binder, IC50 to be filled in.
**Q:** GET /values?readout=IC50&item= Ab37 (antibody, human IgG1, V domains shown) VH: EVQLVQSGAEVKKPGATVKISCKVSGYTFITYWISWVQQAPGKGLEWMGAIDPSDSDARYSPSFQGRVTITADKSTDTAYMELSSLRSEDTAVYYCAKSDPGYSGYSLLYGFDSWGQGTLVTVSS VL: DIVMTQSPLSLPVTLGQPASISCRSSQSLVQRNGNTYLSWFQQRPGQSPRLLIYQVSNRYSGVPDRFSGSGSGTDFTLKISRVEAEDVGVYYCGQGAHLPLTFGQGTKVEIK
**A:** 0.132

The measured values listed here are drawn from patent US20230220057A1.
